B1: Membrane-associated guanylate kinase, WW and PDZ domain-containing protein 1, residues 352 to 401; numbered along this chain, Q96QZ7 (parent)
chain: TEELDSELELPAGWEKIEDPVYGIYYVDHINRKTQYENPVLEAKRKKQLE

# Variants of: B1
# protocol: abundance fitness (aPCA) (normalised: wild type 0, dead -1); higher = more abundant; growth selection in yeast, the domain comes from the species named
# settings: Homo sapiens
Entries and their abundance fitness values follow.
metric: abundance fitness

# change, metric, data-value
records = [
    ("Y25H", "abundance fitness", -0.192),
    ("L4Y", "abundance fitness", -0.444),
    ("Y36N", "abundance fitness", -0.176),
    ("D28K", "abundance fitness", -0.764),
    ("K47T", "abundance fitness", -0.077),
    ("I17A", "abundance fitness", -0.227),
    ("I24D", "abundance fitness", -0.387),
    ("R45L", "abundance fitness", -0.302),
    ("E37A", "abundance fitness", -0.192),
    ("E50L", "abundance fitness", -0.223),
    ("H29M", "abundance fitness", -0.386),
    ("Q35V", "abundance fitness", -0.188),
    ("Y36Q", "abundance fitness", -0.134),
    ("K46C", "abundance fitness", -0.103),
    ("T1S", "abundance fitness", 0.004),
    ("T1W", "abundance fitness", -0.351),
    ("W14A", "abundance fitness", -0.686),
    ("H29R", "abundance fitness", -0.217),
    ("Y36R", "abundance fitness", 0.059),
    ("E42C", "abundance fitness", -0.297),
    ("N38Y", "abundance fitness", -0.365),
    ("Y22W", "abundance fitness", -0.186),
    ("D5F", "abundance fitness", -0.006),
    ("E7H", "abundance fitness", -0.217),
    ("V40A", "abundance fitness", 0.068),
    ("L41W", "abundance fitness", -0.114),
    ("Y22V", "abundance fitness", -0.051),
    ("D19K", "abundance fitness", -0.579),
    ("K47Y", "abundance fitness", -0.207),
    ("T34S", "abundance fitness", -0.11),
    ("E18F", "abundance fitness", -0.263),
    ("I24R", "abundance fitness", -0.203),
    ("E2S", "abundance fitness", -0.191),
    ("G23D", "abundance fitness", -0.884),
    ("K16T", "abundance fitness", -0.49),
    ("E2L", "abundance fitness", -0.35),
    ("E37K", "abundance fitness", -0.282),
    ("L41I", "abundance fitness", -0.324),
    ("H29G", "abundance fitness", -0.317),
    ("Q35C", "abundance fitness", -0.338),
    ("A43D", "abundance fitness", 0.003),
    ("L4I", "abundance fitness", 0.349),
    ("Y25E", "abundance fitness", -0.26),
    ("N31V", "abundance fitness", -0.756),
    ("L41T", "abundance fitness", -0.058),
    ("I17F", "abundance fitness", -0.258),
    ("E42W", "abundance fitness", -0.26),
    ("Y25K", "abundance fitness", 0.007),
    ("I24G", "abundance fitness", -0.208),
    ("W14C", "abundance fitness", -0.324),
    ("E15Y", "abundance fitness", -0.46),
    ("P11K", "abundance fitness", -0.153),
    ("E15I", "abundance fitness", -0.733),
    ("T34Q", "abundance fitness", -0.182),
    ("V40G", "abundance fitness", -0.047),
    ("E18L", "abundance fitness", -0.311),
    ("Y22P", "abundance fitness", -0.24),
    ("K44P", "abundance fitness", -0.27),
    ("R45E", "abundance fitness", 0.073),
    ("L41A", "abundance fitness", 0.038),
    ("I30S", "abundance fitness", -0.279),
    ("E9K", "abundance fitness", -0.078),
    ("E2N", "abundance fitness", 0.372),
]
